All figures here come from patent EP4656642A1.

system: T-47D cells; experiment: Inhibition of cell proliferation in T-47D cells (CCK-8, 6 days); type: cell-based; settings: 6 days of treatment, Table 3
pIC50 values for the molecules below.
Convention used: pIC50 is expressed as -log10 of the molar concentration.

Molecule	pIC50
O=C1CCC(N2Cc3c(ccc4c3OCC43CCN(C4CCN(C(=O)C5CC6(CCN(c7ccc([C@@H]8c9ccc(O)cc9CC[C@@H]8c8ccccc8)cc7)CC6)C5)CC4)CC3)C2=O)C(=O)N1 (stereo partly drawn)	8.95
O=C1CCC(N2Cc3c(ccc4c3OCC43CCN(C(=O)C4CCN(c5ccc([C@@H]6c7ccc(O)cc7CC[C@@H]6c6ccccc6)cc5)CC4)CC3)C2=O)C(=O)N1 (stereo partly drawn)	7.96

// pIC50 lookup, key: O=C1CCC(N2Cc3c(ccc4c3OCC43CCN(C4CCC5(CC4)CCN(c4ccc([C@@H]6c7ccc(O)cc7CC[C@@H]6c6ccccc6)cc4)CC5)CC3)C2=O)C(=O)N1 (stereo partly drawn)
8.10
